Measured Purity %, listed per entry.
Assay: Stability test of BTG 1640 salts: purity under preservation conditions
Type: physicochemical
Conditions: T = 5° C.; time 0
Counter-ions that a name gives are not always drawn.
The reply should contain only the number, in %.

>>> val("CN1OC2CCCC(=O)C2C1Cc1ccccc1.O=C(O)CCC(=O)O (centres unmarked) [BTG 1640 succinate]")
99.2
>>> val("CN1OC2CCCC(=O)C2C1Cc1ccccc1.Cl (centres unmarked) [BTG 1640 hydrochloride]")
99.3
>>> val("CN1OC2CCCC(=O)C2C1Cc1ccccc1 (centres unmarked) [BTG 1640 fumarate]")
99.5
>>> val("CN1OC2CCCC(=O)C2C1Cc1ccccc1.O=C(O)/C=C\\C(=O)O (centres unmarked) [BTG 1640 maleate]")
99.8

Proceed to the following item.
Record request: Purity % value, item CN1OC2CCCC(=O)C2C1Cc1ccccc1.CS(=O)(=O)O (centres unmarked) [BTG 1640 methanesulphonate]
99.6
